TARGET: 5-HT1A receptor (Rattus norvegicus)
Sequence (P19327 whole entry): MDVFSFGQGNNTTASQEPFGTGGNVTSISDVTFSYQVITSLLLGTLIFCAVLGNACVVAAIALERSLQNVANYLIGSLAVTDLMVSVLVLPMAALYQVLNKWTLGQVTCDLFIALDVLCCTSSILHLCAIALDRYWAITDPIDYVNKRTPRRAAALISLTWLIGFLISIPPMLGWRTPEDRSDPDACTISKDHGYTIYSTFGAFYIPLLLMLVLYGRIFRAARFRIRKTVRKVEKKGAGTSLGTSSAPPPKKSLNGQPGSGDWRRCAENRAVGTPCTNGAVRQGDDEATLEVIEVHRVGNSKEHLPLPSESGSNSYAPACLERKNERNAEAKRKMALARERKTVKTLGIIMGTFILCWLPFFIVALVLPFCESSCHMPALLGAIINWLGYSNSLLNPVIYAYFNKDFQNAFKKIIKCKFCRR
MEASUREMENT_PROTOCOL: Inhibition of 3H-8-OH-DPAT binding to serotonin 5-HT1A receptors in rat brain in vitro
Parameters: 5-HT1A receptors in membranes from rat brain minus cerebellum; from tissue; host or cells: rat brain minus cerebellum, membranes
TEST_PARAMETERS: 3H-8-OH-DPAT 1 nM; membranes from rat brain minus cerebellum; read-out: IC50, 3H 8-OH-DPAT binding
pIC50: −log10 of the molar value.
Field: class. Source value: pIC50. Ranges: class A = under 7, class B = from 7 up to 8, class C = 8 and over

These recorded examples may help you get a feel for the data.
# CPD_SMILES, ASSIGNED_CLASS
data = [
    ("O=S(=O)(CCCN1CCN(c2cccc3c2OCC3)CC1)C1CCCCC1", "class C"),
    ("CC1(C)Cc2cccc(N3CCN(CCCCN4CCN(c5ccc(F)cc5)C4=O)CC3)c2O1", "class C"),
    ("CC1(C)Cc2c(N3CCN(CCCN4CCN(C5CCCCC5)C4=O)CC3)ccc(Cl)c2O1", "class A"),
]

Note: place this molecule into its band. Item: "CC1(C)Cc2cccc(N3CCN(CCN4CCN(c5ccccc5)C4=O)CC3)c2O1"
class C

Note: place this molecule into its band. Item: "O=C1N(CCCN2CCN(c3cccc4c3OCCO4)CC2)CCN1Cc1ccccc1"
class B

Note: place this molecule into its band. Item: "O=C1N(CCN2CCN(c3cccc4c3NCC4)CC2)CCN1C1CCCC1"
class A

Note: place this molecule into its band. Item: "CC1(C)COc2c(N3CCN(CCN4CCN(C5CCCC5)C4=O)CC3)cc(Cl)cc21"
class B
